# Assay Protocol: Octanol-water partition coefficient (logP) value for platinum compounds
# Assay type: physicochemical
Property Label: logP
Format: numeric value only, no unit, no commentary.

Example entries begin here.
AMMONIO(DICHLORO)[DI(PROYLCARBONYLOXY)]PLATINUM(CYCLOHEXYL)AMMONIUM = 0.47
CISPLATIN = -2.36

Given item `AMMONIO(DICHLORO)[DI(METHYLCARBONYLOXY)]PLATINUM(CYCLOHEXYL)AMMONIUM` , the value recorded as its logP is -0.47

Given item `AMMONIO(DICHLORO)PLATINUM(CYCLOHEXYL)AMMONIUM` , the value recorded as its logP is -0.87

Given item `AMMONIO(DICHLORO)[DI(BUTYLCARBONYLOXY)]PLATINUM(CYCLOHEXYL)AMMONIUM` , the value recorded as its logP is 0.86

====

# Assay Protocol: The observed [pt] (mmol/mg protein) value for platinum content in cells
# Format: ADME
Property Label: Observed [pt]

Example entries begin here.
AMMONIO(DICHLORO)PLATINUM(CYCLOHEXYL)AMMONIUM = 1.9 mM (mg of protein)-1
CISPLATIN = 1 mM (mg of protein)-1
AMMONIO(DICHLORO)[DI(PROYLCARBONYLOXY)]PLATINUM(CYCLOHEXYL)AMMONIUM = 13.5 mM (mg of protein)-1
AMMONIO(DICHLORO)[DI(BUTYLCARBONYLOXY)]PLATINUM(CYCLOHEXYL)AMMONIUM = 17 mM (mg of protein)-1

Next substance, Observed [pt] to be filled in.
Given item `AMMONIO(DICHLORO)[DI(METHYLCARBONYLOXY)]PLATINUM(CYCLOHEXYL)AMMONIUM` , the value recorded as its Observed [pt] is 3.5 mM (mg of protein)-1

Entry source: ChEMBL document CHEMBL1134341
